Molecular target: Peroxisome proliferator-activated receptor gamma/Nuclear receptor coactivator 2 (Homo sapiens)
Sequence (P37231 whole entry): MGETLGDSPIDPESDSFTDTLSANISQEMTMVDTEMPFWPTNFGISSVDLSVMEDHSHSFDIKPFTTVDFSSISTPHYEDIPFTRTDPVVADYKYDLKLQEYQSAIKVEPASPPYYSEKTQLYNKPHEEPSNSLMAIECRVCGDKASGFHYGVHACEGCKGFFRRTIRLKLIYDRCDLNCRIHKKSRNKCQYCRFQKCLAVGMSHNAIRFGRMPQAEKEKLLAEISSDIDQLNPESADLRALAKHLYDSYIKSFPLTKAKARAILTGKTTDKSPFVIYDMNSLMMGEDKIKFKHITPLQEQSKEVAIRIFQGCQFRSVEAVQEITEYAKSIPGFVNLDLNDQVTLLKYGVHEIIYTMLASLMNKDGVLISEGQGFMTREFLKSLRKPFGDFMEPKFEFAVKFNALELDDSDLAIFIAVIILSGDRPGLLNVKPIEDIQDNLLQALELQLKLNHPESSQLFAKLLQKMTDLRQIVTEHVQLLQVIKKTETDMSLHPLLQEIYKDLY
Sequence (Q15596 whole entry, further chain): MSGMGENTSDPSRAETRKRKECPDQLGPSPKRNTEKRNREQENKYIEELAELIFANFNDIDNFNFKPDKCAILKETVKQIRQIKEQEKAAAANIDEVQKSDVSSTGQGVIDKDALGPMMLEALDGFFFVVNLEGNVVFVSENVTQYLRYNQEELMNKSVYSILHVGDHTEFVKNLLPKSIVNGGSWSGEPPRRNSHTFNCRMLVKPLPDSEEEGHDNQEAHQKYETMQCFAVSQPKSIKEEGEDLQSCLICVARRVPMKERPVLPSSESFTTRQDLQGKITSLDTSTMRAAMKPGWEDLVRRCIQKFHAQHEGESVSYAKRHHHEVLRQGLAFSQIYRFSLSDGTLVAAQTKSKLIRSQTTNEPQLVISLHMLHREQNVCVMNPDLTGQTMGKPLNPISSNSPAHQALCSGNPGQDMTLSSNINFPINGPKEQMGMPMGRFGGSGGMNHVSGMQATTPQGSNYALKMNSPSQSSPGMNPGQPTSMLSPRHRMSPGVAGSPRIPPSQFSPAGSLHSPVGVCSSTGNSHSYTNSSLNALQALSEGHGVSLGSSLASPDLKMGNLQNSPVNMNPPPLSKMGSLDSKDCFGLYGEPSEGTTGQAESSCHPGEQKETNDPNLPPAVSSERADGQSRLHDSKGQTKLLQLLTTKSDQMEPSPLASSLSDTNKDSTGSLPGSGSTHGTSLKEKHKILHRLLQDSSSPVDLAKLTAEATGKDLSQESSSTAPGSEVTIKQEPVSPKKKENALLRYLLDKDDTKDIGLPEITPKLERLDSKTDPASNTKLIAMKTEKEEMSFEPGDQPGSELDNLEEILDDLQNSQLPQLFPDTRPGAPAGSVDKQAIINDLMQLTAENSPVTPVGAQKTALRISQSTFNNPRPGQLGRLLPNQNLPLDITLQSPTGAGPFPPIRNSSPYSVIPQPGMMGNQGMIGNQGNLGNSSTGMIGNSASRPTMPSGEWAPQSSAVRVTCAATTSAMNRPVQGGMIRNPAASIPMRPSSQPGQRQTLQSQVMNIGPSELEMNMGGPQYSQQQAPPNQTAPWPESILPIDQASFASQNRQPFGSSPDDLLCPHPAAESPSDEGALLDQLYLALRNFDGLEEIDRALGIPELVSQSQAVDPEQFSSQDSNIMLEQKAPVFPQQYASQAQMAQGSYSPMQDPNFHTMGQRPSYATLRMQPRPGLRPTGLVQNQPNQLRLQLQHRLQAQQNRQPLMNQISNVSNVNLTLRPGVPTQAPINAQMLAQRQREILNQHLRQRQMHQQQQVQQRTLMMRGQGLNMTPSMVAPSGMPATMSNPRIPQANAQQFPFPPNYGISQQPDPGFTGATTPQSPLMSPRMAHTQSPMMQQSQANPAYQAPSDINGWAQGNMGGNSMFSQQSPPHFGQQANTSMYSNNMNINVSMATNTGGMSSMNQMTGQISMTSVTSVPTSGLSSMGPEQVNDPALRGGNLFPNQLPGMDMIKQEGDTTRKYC
Test: TR-FRET dose response biochemical High Throughput Screening assay for agonists of the steroid receptor coactivator 2 (SRC-2) recruitment by the peroxisome proliferator-activated receptor gamma (PPAR gamma): non-selective agonists. [Related pubchem assays: 1297, 1032 ]
Format: functional
Item-by-item account of EC50
quantity.kind: EC50

smiles_representation=CC(=O)c1sc2nc(SCC(=O)N3CCCCC3)[nH]c(=O)c2c1C measured_result="> 79.4 µM (not active)"
smiles_representation=Cc1ccc(Sc2c(O)c3ccccc3n(C)c2=O)cc1 measured_result="> 79.4 µM (not active)"
smiles_representation=Cc1cc(C(=O)OCC(=O)c2ccc(Br)s2)c(C)o1 measured_result="14.6 µM (not active)"
smiles_representation=COc1cc2c(cc1OC)C1=NC(=O)CN1C(SCc1ccccc1C)=N2 measured_result="82.7 µM (not active)"
smiles_representation=O=c1c2c(-c3cccs3)csc2[nH]c(=S)n1-c1ccccc1 measured_result="11.6 µM (not active)"

* * *

Assay: alpha-synuclein stem-loop luciferase translation blockers – H4 neuroglioma cells, luminescence, confirmation (AID 1988)
Format: functional, cell-based
Activity calls are given as the source filed them.
quantity.kind: EC50

compound=CCNc1nc(SCc2ccccc2)nc(N2CCOCC2)n1 quantity_kind=EC50 measured_result="16.8 µM (active)"
compound=CC(=O)c1c(C)oc2ccc(N(C(C)=O)S(=O)(=O)c3ccc(Cl)c([N+](=O)[O-])c3)cc12 quantity_kind=EC50 measured_result="7.59 µM (active)"
compound="COc1cc(C(=O)N/N=C/C2CC=CCC2)cc(OC)c1OC (stereo unspecified)" quantity_kind=EC50 measured_result="> 120 µM (not active)"
compound=Cc1cccc(N(C)S(=O)(=O)c2ccc(-c3cc(C)no3)s2)c1 quantity_kind=EC50 measured_result="0.155 µM (active)"
compound=COc1ccc(C(=O)Nc2ccccc2N2CCOCC2)cc1[N+](=O)[O-] quantity_kind=EC50 measured_result="> 120 µM (not active)"
compound=COc1cc(-c2noc(C)c2/C=C/c2ccc(N)cc2)cc(OC)c1OC quantity_kind=EC50 measured_result="< 0.1 µM (active)"

* * *

Assay: luciferase reporter signal suppression in cells – H4 neuroglioma cells, luminescence, dose response (AID 1990)
Type: functional, cell-based
Activity calls are given as the source filed them.
Item-by-item account of EC50
quantity.kind: EC50

smiles_representation=CC(=O)c1c(C)oc2ccc(N(C(C)=O)S(=O)(=O)c3ccc(Cl)c([N+](=O)[O-])c3)cc12 measured_result="7.87 µM (active)"
smiles_representation=COc1cc(-c2noc(C)c2/C=C/c2ccc(N)cc2)cc(OC)c1OC measured_result="< 0.1 µM (active)"
smiles_representation=Cc1ccc(-c2cc(C(=O)N/N=C/c3c(C)nn(-c4ccccc4)c3C)[nH]n2)cc1 measured_result="7.44 µM (active)"
smiles_representation=CCCCn1c(N2CCCC2)nc2c1c(=O)[nH]c(=O)n2C measured_result="> 120 µM (not active)"

* * *

Biological target: Adenosylmethionine-8-amino-7-oxononanoate aminotransferase (Mycobacterium tuberculosis, UniProt P9WQ81)
Sequence (P9WQ81 whole entry): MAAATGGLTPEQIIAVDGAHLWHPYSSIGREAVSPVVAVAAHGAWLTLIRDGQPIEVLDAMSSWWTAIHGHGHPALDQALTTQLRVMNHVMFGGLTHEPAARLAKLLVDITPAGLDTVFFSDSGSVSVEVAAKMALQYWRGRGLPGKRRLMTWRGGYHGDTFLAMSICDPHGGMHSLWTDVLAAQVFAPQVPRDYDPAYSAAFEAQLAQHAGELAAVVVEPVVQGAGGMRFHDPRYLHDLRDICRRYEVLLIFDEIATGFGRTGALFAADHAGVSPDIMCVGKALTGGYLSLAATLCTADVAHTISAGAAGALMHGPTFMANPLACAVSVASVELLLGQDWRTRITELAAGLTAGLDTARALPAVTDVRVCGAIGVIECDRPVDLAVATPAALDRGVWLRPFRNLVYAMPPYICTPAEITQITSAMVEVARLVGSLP
Assay: Mycobacterium tuberculosis BioA enzyme inhibitor Measured in Biochemical System Using Plate Reader - 2163-02_Inhibitor_Dose_CherryPick_Activity.
Type: functional, Mycobacterium tuberculosis UT205
Active and inactive are the calls of the source.
quantity.kind: AC50

smiles_representation=CCCc1c(OCCCOc2ccc(OCC(=O)O)cc2)ccc(C(C)=O)c1O quantity_kind=AC50 measured_result="2.54 µM (active)"
smiles_representation=CN1c2ccc(-c3cccc(C#N)c3)cc2[C@H]2[C@H](CCN2C(=O)CC2CC2)[C@H]1CO quantity_kind=AC50 measured_result="3.56 µM (active)"
smiles_representation=Cc1ccccc1S(=O)(=O)NCC[C@H]1CC[C@@H](NC(=O)Nc2cccc(F)c2)[C@H](CO)O1 quantity_kind=AC50 measured_result="11.3 µM (active)"
smiles_representation=O=C(CSc1nc2c(c(=O)n1-c1ccccc1)SCC2)N1CCOCC1 quantity_kind=AC50 measured_result="2.62 µM (active)"

* * *

Target: UniProt:O75030
Sequence (O75030 whole entry): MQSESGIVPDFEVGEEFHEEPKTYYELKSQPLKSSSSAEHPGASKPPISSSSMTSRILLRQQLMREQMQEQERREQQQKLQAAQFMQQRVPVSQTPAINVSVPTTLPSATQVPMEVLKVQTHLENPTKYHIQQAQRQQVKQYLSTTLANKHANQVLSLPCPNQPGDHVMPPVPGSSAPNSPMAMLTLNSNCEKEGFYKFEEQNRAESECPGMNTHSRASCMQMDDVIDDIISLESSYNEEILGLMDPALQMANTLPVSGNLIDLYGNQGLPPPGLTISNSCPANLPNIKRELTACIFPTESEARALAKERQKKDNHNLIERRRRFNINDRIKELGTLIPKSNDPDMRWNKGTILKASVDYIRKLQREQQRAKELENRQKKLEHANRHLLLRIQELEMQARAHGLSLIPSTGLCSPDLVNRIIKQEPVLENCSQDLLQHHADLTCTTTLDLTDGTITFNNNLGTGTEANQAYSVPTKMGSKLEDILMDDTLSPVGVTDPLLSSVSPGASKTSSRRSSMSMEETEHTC
Test: reducers of TRPM1 reporter luminescence, concentration series – cell-based, SK-MEL-5, cherry-picked, set 3, MITF inhibitor project, dose response (AID 493073);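 also: SK-MEL-5 melanoma cells with luciferase driven by the MITF target TRPM1 promoter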
Type: functional
Calls of active or inactive are those of the source.
quantity.kind: AC50

compound=Cc1ccc2c(c1)COc1c3ccc(C(=O)O)cc3nn1-2 quantity_kind=AC50 measured_result="2.23 µM (active)"
compound=O=C(Nc1nc(-c2ccccn2)cs1)c1ccc([N+](=O)[O-])o1 quantity_kind=AC50 measured_result="10.8 µM (active)"
compound="CC(=O)N(C1CC(C)C(C#N)(C#N)C1(C#N)C#N)N(C)C (stereo not given)" quantity_kind=AC50 measured_result="9.24 µM (active)"
compound=Cc1cccc(NC(=O)c2ccc([N+](=O)[O-])o2)c1C quantity_kind=AC50 measured_result="14.8 µM (active)"
compound="Cc1ccc(-c2nnc(O)c3ccccc23)cc1S(=O)(=O)NCC1CCCO1 (stereo not given)" quantity_kind=AC50 measured_result="53.2 µM (active)"

* * *

Item-by-item account of EC50
Target: Voltage-dependent T-type calcium channel subunit alpha-1H (Homo sapiens, UniProt O95180);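 also: channel activity triggered by adding a high calcium stimulation buffer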
Sequence (O95180 whole entry): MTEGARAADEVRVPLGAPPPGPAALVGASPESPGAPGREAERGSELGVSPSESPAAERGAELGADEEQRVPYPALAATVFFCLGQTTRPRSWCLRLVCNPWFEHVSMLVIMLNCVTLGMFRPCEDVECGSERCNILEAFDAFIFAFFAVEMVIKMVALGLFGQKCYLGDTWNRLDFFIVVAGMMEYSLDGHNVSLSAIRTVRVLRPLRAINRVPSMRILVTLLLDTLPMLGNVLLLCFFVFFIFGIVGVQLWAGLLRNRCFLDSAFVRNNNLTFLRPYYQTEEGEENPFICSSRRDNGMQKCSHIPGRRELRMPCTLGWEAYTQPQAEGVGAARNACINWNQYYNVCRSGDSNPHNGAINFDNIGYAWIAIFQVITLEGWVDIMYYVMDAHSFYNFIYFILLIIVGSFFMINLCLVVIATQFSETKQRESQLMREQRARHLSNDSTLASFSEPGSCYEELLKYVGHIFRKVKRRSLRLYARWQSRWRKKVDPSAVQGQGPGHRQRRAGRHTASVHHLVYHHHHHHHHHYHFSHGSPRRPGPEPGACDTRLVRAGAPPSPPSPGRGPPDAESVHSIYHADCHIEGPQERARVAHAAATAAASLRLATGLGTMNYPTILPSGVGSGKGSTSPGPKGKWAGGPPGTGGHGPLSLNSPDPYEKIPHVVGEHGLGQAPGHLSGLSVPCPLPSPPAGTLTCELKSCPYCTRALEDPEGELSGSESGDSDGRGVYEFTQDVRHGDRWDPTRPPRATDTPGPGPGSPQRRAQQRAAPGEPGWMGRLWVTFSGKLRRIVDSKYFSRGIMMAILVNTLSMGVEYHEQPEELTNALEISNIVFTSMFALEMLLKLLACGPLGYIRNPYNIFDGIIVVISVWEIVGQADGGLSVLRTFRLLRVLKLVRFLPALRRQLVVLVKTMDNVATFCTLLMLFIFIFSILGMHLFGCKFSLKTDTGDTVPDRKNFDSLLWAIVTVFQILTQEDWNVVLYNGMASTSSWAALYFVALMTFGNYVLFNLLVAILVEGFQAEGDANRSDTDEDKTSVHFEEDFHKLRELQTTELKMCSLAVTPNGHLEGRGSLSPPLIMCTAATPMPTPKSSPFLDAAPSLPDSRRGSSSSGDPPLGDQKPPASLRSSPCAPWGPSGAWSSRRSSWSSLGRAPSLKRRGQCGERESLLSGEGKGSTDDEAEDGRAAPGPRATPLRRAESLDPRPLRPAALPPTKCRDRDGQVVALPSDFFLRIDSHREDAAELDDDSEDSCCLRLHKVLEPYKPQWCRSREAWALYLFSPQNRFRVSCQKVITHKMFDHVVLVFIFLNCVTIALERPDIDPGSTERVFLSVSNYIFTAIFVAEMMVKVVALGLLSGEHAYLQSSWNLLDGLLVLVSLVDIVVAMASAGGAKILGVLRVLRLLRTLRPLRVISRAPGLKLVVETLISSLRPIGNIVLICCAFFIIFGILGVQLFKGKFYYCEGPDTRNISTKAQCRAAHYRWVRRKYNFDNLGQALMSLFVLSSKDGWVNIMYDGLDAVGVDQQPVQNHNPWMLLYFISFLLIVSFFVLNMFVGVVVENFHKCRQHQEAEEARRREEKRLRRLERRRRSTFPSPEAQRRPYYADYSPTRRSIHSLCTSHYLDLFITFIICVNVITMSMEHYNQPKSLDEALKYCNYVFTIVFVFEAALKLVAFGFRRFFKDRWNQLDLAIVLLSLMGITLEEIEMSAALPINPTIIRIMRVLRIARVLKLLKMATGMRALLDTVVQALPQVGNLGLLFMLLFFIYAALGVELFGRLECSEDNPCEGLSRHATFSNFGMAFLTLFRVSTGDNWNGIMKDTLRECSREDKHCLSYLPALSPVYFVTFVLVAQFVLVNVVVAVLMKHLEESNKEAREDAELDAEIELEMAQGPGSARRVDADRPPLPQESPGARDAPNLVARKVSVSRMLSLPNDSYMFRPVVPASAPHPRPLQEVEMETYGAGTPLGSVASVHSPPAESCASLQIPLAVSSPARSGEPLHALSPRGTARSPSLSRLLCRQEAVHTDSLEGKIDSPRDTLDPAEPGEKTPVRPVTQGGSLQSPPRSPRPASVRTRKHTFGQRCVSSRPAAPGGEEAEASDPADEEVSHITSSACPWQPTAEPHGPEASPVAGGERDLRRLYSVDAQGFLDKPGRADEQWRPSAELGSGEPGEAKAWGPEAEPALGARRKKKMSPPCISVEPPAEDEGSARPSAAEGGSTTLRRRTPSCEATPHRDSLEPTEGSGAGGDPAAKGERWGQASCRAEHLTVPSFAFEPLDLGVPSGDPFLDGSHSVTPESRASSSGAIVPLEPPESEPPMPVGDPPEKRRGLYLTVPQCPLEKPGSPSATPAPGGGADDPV
Type: functional
Where a name gives a salt, the structure may show the parent alone. Calls of active or inactive are those of the source.
quantity.kind: EC50

compound="COc1ccc(N2CCN(C(=O)CC(NC(N)=O)c3cccc(Oc4ccccc4)c3)CC2)cc1 (stereo unspecified)" quantity_kind=EC50 measured_result="13.7 µM (active)"
compound="Fc1ccc(C(c2ccc(F)cc2)N2CCN(C/C=C/c3ccccc3)CC2)cc1 [FLUNARIZINE DIHYDROCHLORIDE]" quantity_kind=EC50 measured_result="5.62 µM (active)"
compound=Cc1ccc(NC(=O)Cn2c(=O)oc3cc(S(=O)(=O)N4CCC(C)CC4)ccc32)cc1C quantity_kind=EC50 measured_result="5.17 µM (active)"
compound="O=C(CC1NCCNC1=O)Nc1ccc(Oc2ccccc2)cc1 (stereo unspecified)" quantity_kind=EC50 measured_result="8.83 µM (active)"
compound="CC(C)c1ccc(CN(C(=O)C2COc3ccccc3O2)C2CCS(=O)(=O)C2)cc1 (stereo unspecified)" quantity_kind=EC50 measured_result="6.86 µM (active)"
compound=Cc1ccc(-c2noc(CN(C(=O)C(c3ccccc3)c3ccccc3)C(C)C)n2)cc1 quantity_kind=EC50 measured_result="5.14 µM (active)"

* * *

Biological target: Luciferin 4-monooxygenase (Photinus pyralis, UniProt P08659)
Experiment: inhibition of purified Photinus pyralis luciferase – biochemical, luminescence, dose response (AID 1891)
Active and inactive are the calls of the source.
quantity.kind: EC50

molecule=O=C1Nc2ccccc2Nc2ncccc21 quantity_kind=EC50 measured_result="> 112 µM (not active)"
molecule="COc1cc(C(c2sc3nc(C)nn3c2O)N2CCOCC2)cc(OC)c1OC (configuration not stated)" quantity_kind=EC50 measured_result="> 112 µM (not active)"
molecule="CC(Oc1ccccc1)C(=O)N(CCC1=CCCCC1)c1c(N)n(Cc2ccccc2)c(=O)[nH]c1=O (configuration not stated)" quantity_kind=EC50 measured_result="> 112 µM (not active)"
molecule=COc1cc(OC)c(-c2nnc3n(CCc4ccccc4)c(=O)c4ccccc4n23)cc1OC quantity_kind=EC50 measured_result="> 112 µM (not active)"
molecule="CCOc1ccccc1N1CC(C(=O)Nc2nccs2)CC1=O (configuration not stated)" quantity_kind=EC50 measured_result="> 112 µM (not active)"
molecule="O=C(Nc1ccc(-c2nc3ccccc3o2)cc1)C1CCCO1 (configuration not stated)" quantity_kind=EC50 measured_result="2.6 µM (active)"
molecule=Cc1ccc2nc(NC(=O)CN3C(=O)NC4(CCCC4)C3=O)sc2c1 quantity_kind=EC50 measured_result="80 µM (active)"

* * *

Test system: H4
Assay: Luminescence Cell-Based Dose Response HTS to Identify Activators of 5'UTR Stem-Loop Driven Prion Protein mRNA Translation in H4 Neuroglioblastoma Cells. [Related pubchem assays: 1829 (Project Summary), 1814 (Primary HTS)]
Assay type: functional
Settings: Homo sapiens
Calls of active or inactive are those of the source.
Item-by-item account of EC50
quantity.kind: EC50

molecule=Cc1nc2ccccc2c(=O)n1/N=C1\C(=O)N(C)c2ccccc21 measured_result="> 120 µM (not active)"
molecule=Cc1nnc2n1N=CC=C(c1ccccc1)S2 measured_result="> 120 µM (not active)"
molecule=CC(=O)c1sc(N/N=C/c2cccc(O)c2)nc1C measured_result="23.2 µM (active)"
molecule="CC1=NN(C(N)=S)C(=O)C1N=Nc1ccc(Cl)cc1Cl (centres undefined)" measured_result="> 120 µM (not active)"

Sourced from ChEMBL document CHEMBL1201862
